# tgt: Bile acid receptor (Homo sapiens)
# testDetails: OT_FXR_FXRSRC1_0480: Odyssey Thera (OT) 8-hour HEK293T Protein-Complementation Assay for Farnesoid X receptor/SRC-1 Co-activator (AID 2283383)
Results filed as inconclusive are left out. Calls of active or inactive are those of the source. How the source made its calls: active means hit-call score of the fitted dose curve at least 0.9, where 1 is the maximum; inconclusive means response in the unintended direction; inactive means score below 0.9.
assayReadout: AC50

> print(dat)
                                    compound  assayreadout     observedvalue
 1                               CCc1ccccc1O          AC50          inactive
 2  Cc1cc(C(=C2C=CC(=Nc3ccc(S(=O)(=O)O)cc3)C=C2)c2ccc(Nc3ccc(S(=O)(=O)O)cc3)cc2)cc(S(=O)(=O)O)c1N          AC50          inactive
 3  O=C(CCCN1CCC(O)(c2ccc(Cl)cc2)CC1)c1ccc(F)cc1          AC50          inactive
 4  C=CC(C)(CCC=C(C)C)OC(C)=O (configuration not stated)          AC50    76 µM (active)
 5                       CCCCCCC(C)(C)C(=O)O          AC50          inactive
 6  Cc1[nH]nc2c1N=C(c1ccccc1Cl)c1cc([N+](=O)[O-])ccc1N2          AC50  1.06 µM (active)
 7                        O=S(=O)(O)c1ccccc1          AC50          inactive
 8           CC(C)[C@@H]1CC[C@@H](C)C[C@H]1O          AC50          inactive
 9  CCCCc1oc2ccccc2c1C(=O)c1cc(I)c(OCCN(CC)CC)c(I)c1          AC50  9.16 µM (active)
10  CCCCCCCCCC=CCC1CC(=O)OC1=O (configuration not stated)          AC50          inactive
11  CCCCCC(C)OC(=O)COc1ccc(Cl)c2cccnc12 (configuration not stated)          AC50    44 µM (active)
12                 COc1cc([N+](=O)[O-])ccc1N          AC50          inactive

====

# testDetails: ATG_EGR_CIS: Attagene CIS-FACTORIAL HepG2 Assay for human Early Growth Response 1 (EGR1) (AID 2282938)
# statedConditions: HepG2 Attagene CIS-FACTORIAL EGR reporter mRNA; actives raise or lower the signal
Activity calls are given as the source filed them. How the source made its calls: active means hit-call score of the fitted dose curve at least 0.9, where 1 is the maximum; inactive means score below 0.9.
assayReadout: AC50

> print(dat)
                                    molecule    observedvalue
 1  CCO[Si](CCC1CCC2OC2C1)(OCC)OCC (configuration not stated)         inactive
 2    O=C1C=CC(=O)N1c1cccc(N2C(=O)C=CC2=O)c1         inactive
 3  CC1CCC(CO)CC1 (configuration not stated)         inactive
 4        CCCCCCCCCCCC[N+](C)(C)CCCCCCCCCCCC         inactive
 5  CC(C)(c1ccc(Oc2ccc(N)cc2)cc1)c1ccc(Oc2ccc(N)cc2)cc1         inactive
 6                                      NCCN         inactive
 7  Nc1ccn([C@@H]2O[C@H](CO)[C@@H](O)C2O)c(=O)n1 (some centres not stated)         inactive
 8  FC(F)(F)C1(F)C(F)(F)C(F)(F)C(F)(F)C(F)(C(F)(F)F)C1(F)F (configuration not stated)         inactive
 9                       CCCCCCC(C)(C)C(=O)O  130 µM (active)
10  CCCCCCCCC1CCC(=O)O1 (configuration not stated)         inactive
11  Cc1ccccc1C(OCCN(C)C)c1ccccc1 (configuration not stated)         inactive
12   O=C(Nc1ccc(Cl)c(Cl)c1)c1cc(Cl)cc(Cl)c1O  8.8 µM (active)
13  OCC(F)(F)C(F)(F)C(F)(F)C(F)(F)C(F)(F)C(F)(F)C(F)(F)C(F)(F)C(F)(F)C(F)(F)C(F)(F)F         inactive
14                    FC1(F)C=CC(F)(F)C1(F)F         inactive
15                     OCCN1CN(CCO)CN(CCO)C1  173 µM (active)
16             COC(=O)C(F)(F)C(F)(F)C(F)(F)F         inactive
17                       Oc1c(Cl)ccc(Cl)c1Cl         inactive

====

# tgt: Ratio of Nucleoli Translocation and Cytoplasm, AR (gene 367)
# testDetails: UPITT_HCI_U2OS_AR_TIF2_Nucleoli_Cytoplasm_Ratio_Antagonist: University of Pittsburgh U2OS Androgen Receptor-Transcriptional Intermediary Factor 2 (AR-TIF2) Antagonism High Content Imaging Assay for Ratio of Nucleoli Translocation and Cytoplasm (AID 2283999);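 further: antagonists lower the DHT-driven ratio of nucleolar to cytoplasmic red signal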
Inconclusive results are not listed. The source made the active and inactive calls. Rule for the calls: active = hit-call score of the fitted dose curve at least 0.9, where 1 is the maximum; inconclusive = response in the unintended direction; inactive = score below 0.9.
Labels: t = active, f = inactive

> print(dat)
                                   compound  classname
1                       CCCCCCC(C)(C)C(=O)O          f
2              CCCCc1ccc2ccccc2c1S(=O)(=O)O          f
3                         CCCCCCc1ccc(N)cc1          f
4  Cc1cc(C(=C2C=CC(=Nc3ccc(S(=O)(=O)O)cc3)C=C2)c2ccc(Nc3ccc(S(=O)(=O)O)cc3)cc2)cc(S(=O)(=O)O)c1N          f
5  CC1COCc2cc3c(cc21)C(C)(C)C(C)C3(C)C (centres undefined)          f
6  NC(=NCCCCCCN=C(N)/N=C(\N)Nc1ccc(Cl)cc1)/N=C(\N)Nc1ccc(Cl)cc1          t
7       CC(O)COc1ccccc1 (centres undefined)          f
8                 COc1cc([N+](=O)[O-])ccc1N          f
9                          CCCCCc1ccc(O)cc1          t

====

# testDetails: ATG_PBREM_CIS: Attagene CIS-FACTORIAL HepG2 Assay for human Phenobarbital-responsive Enhancer Module (PBREM) (AID 2282955)
# statedConditions: HepG2 PBREM cis-reporter, Attagene multiplexed transcription; actives raise or lower the signal
Activity calls are given as the source filed them. Rule for the calls: active = hit-call score of the fitted dose curve at least 0.9, where 1 is the maximum; inactive = score below 0.9.
Outcome codes: 1 for active, -1 for inactive

> print(dat)
                                    molecule  classname
 1  CN(CCO)S(=O)(=O)C(F)(F)C(F)(F)C(F)(F)C(F)(F)C(F)(F)C(F)(F)C(F)(F)C(F)(F)F         -1
 2      FC(F)=C(F)C(F)(F)C(F)(F)C(F)(F)C(F)F         -1
 3  CCCCCCCCC1CCC(=O)O1 (configuration not stated)         -1
 4                          Oc1cc2ccccc2cc1O         -1
 5        c1cc2cccc3c4cccc5cccc(c(c1)c23)c54         -1
 6                    CCCCCCCCCCCCCCCC(=O)OC         -1
 7                        CC(=O)Nc1ccc(O)cc1         -1
 8    Clc1ccc(Nc2nnc(Cc3ccncc3)c3ccccc23)cc1          1
 9  O=S(=O)(O)C(F)(F)C(F)(F)C(F)(F)C(F)(F)C(F)(F)C(F)(F)C(F)(F)C(F)(F)C(F)(F)C(F)(F)F         -1
10  O=P(O)(O)CCC(F)(F)C(F)(F)C(F)(F)C(F)(F)C(F)(F)C(F)(F)F         -1
11  C=CC(=O)OCCC(F)(F)C(F)(F)C(F)(F)C(F)(F)C(F)(F)C(F)(F)F         -1
12  O=C(NCc1ncc(C(F)(F)F)cc1Cl)c1c(Cl)cccc1Cl         -1
13                      Nc1ccc(O)c(C(=O)O)c1         -1
14            FC(F)(F)C(F)(F)C(F)(F)C(F)(F)I         -1
15                            CCCCCCCC(OC)OC         -1
16                    FCOC(C(F)(F)F)C(F)(F)F         -1
17                                Cn1sccc1=O         -1
18               C/C=C/C(=O)C1=C(C)CCCC1(C)C         -1
19                   CC[N+](CC)(CC)Cc1ccccc1         -1
20             COC(=O)C(F)(F)C(F)(F)C(F)(F)F         -1
21               O=C(C=C(O)C(F)(F)F)C(F)(F)F         -1
22   CC1CNCC(C)O1 (configuration not stated)         -1
23  COC(O)c1ccccc1 (configuration not stated)         -1
24  Cc1cc(C(=C2C=CC(=Nc3ccc(S(=O)(=O)O)cc3)C=C2)c2ccc(Nc3ccc(S(=O)(=O)O)cc3)cc2)cc(S(=O)(=O)O)c1N         -1
25                                    CCOC=O         -1
26                       CCCCCCC(C)(C)C(=O)O         -1
27  COC(=O)CC(C(C)=O)C(=O)OC (configuration not stated)         -1
